Molecular target: MOR-1 (untagged) (mouse, UniProt P42866 1-398)
Sequence (P42866 whole entry): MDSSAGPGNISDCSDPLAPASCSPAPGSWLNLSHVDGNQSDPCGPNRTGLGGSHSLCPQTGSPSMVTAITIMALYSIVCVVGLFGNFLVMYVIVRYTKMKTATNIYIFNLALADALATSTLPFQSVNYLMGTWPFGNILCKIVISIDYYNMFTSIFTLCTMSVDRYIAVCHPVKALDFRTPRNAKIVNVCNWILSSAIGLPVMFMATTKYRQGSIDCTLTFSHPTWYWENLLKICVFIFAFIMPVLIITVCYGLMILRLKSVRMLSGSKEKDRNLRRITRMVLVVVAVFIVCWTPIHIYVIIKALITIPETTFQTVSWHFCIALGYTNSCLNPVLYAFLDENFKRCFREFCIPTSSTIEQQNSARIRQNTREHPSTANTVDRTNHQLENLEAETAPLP
Test: radioligand binding
Where no end group is shown, it is not given here.
MEASURE_NAME: pKi
Units for pKi: none; it is -log10 of a concentration expressed in mol/L.

// pKi lookup, binder = YGGFMTSEKSQTPLVTLFKNAIIKNAYKKGE (not fully specified) [β-endorphin] , result: 8.21

Data origin, for the record: paper PMC8026774
